# credit: patent US20090118184A1

Biological target: T1, factor VIIIa A1/A3C1C2 dimer, wild type (human, UniProt P00451 20-391; P00451 1709-2351)
T1 sequence 1: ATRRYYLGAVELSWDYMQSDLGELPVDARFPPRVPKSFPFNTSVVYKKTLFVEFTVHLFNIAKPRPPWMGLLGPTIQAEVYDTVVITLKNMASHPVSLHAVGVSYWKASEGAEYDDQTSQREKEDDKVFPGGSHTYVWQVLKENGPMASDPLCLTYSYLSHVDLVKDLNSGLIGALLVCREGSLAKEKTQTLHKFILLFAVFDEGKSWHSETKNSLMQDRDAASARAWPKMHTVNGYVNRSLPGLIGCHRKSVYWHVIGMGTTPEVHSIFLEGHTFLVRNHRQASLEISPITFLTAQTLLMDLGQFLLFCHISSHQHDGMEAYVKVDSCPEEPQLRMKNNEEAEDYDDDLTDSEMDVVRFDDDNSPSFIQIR
T1 sequence 2: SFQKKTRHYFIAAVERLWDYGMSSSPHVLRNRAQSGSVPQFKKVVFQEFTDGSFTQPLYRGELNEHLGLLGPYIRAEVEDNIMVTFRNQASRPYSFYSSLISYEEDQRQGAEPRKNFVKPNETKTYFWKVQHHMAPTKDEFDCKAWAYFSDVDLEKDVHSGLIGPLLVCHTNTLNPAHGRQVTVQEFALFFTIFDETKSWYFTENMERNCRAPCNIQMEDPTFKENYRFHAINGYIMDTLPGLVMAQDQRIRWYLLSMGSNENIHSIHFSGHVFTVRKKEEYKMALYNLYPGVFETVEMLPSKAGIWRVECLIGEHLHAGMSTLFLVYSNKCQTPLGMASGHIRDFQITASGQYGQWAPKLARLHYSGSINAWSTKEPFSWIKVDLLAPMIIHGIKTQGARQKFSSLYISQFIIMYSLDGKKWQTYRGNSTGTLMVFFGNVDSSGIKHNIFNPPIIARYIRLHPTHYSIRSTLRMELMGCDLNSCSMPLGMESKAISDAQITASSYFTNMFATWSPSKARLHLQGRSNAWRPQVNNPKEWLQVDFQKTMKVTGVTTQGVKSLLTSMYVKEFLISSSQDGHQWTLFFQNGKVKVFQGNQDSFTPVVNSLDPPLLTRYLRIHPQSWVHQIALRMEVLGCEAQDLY
Assay: cell-based or functional assay
measure: Factor VIIIa Decay, Factor IXa absent (min⁻¹)

binder	measure	readout value
factor VIIIa A2 subunit, Asp519Ala (other) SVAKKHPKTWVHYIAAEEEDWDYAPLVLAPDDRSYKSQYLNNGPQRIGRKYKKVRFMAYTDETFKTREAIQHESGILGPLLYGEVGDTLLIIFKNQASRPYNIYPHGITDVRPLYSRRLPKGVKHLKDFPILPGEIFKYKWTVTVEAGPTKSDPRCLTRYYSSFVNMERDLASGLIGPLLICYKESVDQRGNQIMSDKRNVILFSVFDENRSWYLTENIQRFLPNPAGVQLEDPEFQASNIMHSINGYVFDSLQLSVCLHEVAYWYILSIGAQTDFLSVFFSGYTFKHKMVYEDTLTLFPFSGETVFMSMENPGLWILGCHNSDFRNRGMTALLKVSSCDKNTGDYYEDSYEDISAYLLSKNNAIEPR	Factor VIIIa Decay, Factor IXa absent	0.0556
factor VIIIa A2 subunit, Asp519Val (other) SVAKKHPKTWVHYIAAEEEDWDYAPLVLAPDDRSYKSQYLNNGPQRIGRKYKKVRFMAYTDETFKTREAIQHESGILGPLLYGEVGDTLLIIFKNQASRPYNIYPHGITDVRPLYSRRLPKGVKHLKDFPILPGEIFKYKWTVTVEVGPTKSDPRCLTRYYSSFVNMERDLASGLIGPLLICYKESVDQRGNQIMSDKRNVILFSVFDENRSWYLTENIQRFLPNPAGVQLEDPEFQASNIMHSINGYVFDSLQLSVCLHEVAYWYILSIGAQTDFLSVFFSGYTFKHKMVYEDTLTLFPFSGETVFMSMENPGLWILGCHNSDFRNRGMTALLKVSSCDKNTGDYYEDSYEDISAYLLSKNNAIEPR	Factor VIIIa Decay, Factor IXa absent	0.0642
factor VIIIa A2 subunit, Glu665Val (other) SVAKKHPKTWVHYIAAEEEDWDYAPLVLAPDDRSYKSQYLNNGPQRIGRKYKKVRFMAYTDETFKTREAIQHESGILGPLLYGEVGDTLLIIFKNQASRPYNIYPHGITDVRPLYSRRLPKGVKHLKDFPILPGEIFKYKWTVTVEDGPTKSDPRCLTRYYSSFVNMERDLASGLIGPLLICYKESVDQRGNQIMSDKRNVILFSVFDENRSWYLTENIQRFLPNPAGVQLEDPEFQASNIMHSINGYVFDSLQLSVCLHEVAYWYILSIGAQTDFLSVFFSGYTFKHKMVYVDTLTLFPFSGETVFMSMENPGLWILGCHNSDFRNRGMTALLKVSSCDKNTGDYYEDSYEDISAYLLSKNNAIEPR	Factor VIIIa Decay, Factor IXa absent	0.016
